System: clinical strains of Proteus mirabilis
Test: MIC, clinical strains of Proteus mirabilis
Type: cell-based
Design: unit: µg/mL
Conditions: Proteus mirabilis clinical strain 3; microdilution, Muller Hinton broth-cation adjusted, 0.02% BSA, 0.2% acetic acid
Where a SMILES comes first, the peptide text is derived from it. [ ]: non-standard residue; d: D form.
quantity-name: Minimum inhibitory concentration
Quick one: just the number, no unit, thanks!

>  <compound>
CC(C)C[C@@H](NC(=O)[C@H](N)CCCCN)C(=O)N[C@H](CCCCN)C(=O)N[C@H](Cc1c[nH]c2ccccc12)C(=O)N[C@H](Cc1ccccc1)C(=O)N[C@H](Cc1c[nH]c2ccccc12)C(=O)N[C@H](CC(C)C)C(=O)N[C@H](Cc1ccccc1)C(=O)N[C@H](CCCCN)C(=O)N[C@H](CCCCN)C(=O)N[C@H](CCCNC(=N)N)C(=O)O [Chain311D] (H-[dK][dL][dK][dW][dF][dW][dL][dF][dK][dK][dR]-OH)

>  <subject-of-test>
clinical strains of Proteus mirabilis

>  <quantity-name>
Minimum inhibitory concentration

>  <value-reported>
128

$$$$
>  <compound>
CC[C@@H](C)[C@@H](NC(=O)[C@@H](Cc1c[nH]c2ccccc12)NC(=O)[C@H](N)CCCCN)C(=O)N[C@@H](C(=O)N[C@H](Cc1c[nH]c2ccccc12)C(=O)N[C@H](CCCNC(=N)N)C(=O)N[C@H](Cc1c[nH]c2ccccc12)C(=O)N[C@H](CCCNC(=N)N)C(=O)N[C@H](Cc1ccccc1)C(=O)N[C@H](CCCCN)C(=O)N[C@H](CCCNC(=N)N)C(=O)O)C(C)C [Chain201D] (H-[dK][dW][dI][dV][dW][dR][dW][dR][dF][dK][dR]-OH)

>  <subject-of-test>
clinical strains of Proteus mirabilis

>  <quantity-name>
Minimum inhibitory concentration

>  <value-reported>
64

$$$$
>  <compound>
CC(C)C[C@@H](NC(=O)[C@H](N)CCCNC(=N)N)C(=O)N[C@H](CCCCN)C(=O)N[C@H](Cc1c[nH]c2ccccc12)C(=O)N[C@H](Cc1ccccc1)C(=O)N[C@H](Cc1c[nH]c2ccccc12)C(=O)N[C@H](CC(C)C)C(=O)N[C@H](Cc1ccccc1)C(=O)N[C@H](CCCNC(=N)N)C(=O)N[C@H](CCCCN)C(=O)N[C@H](CCCNC(=N)N)C(=O)O [Chain307D] (H-[dR][dL][dK][dW][dF][dW][dL][dF][dR][dK][dR]-OH)

>  <subject-of-test>
clinical strains of Proteus mirabilis

>  <quantity-name>
Minimum inhibitory concentration

>  <value-reported>
128

$$$$

In the following, a different compound is considered.
Q: # query: Minimum inhibitory concentration | item CC(C)C[C@@H](NC(=O)[C@H](N)CCCNC(=N)N)C(=O)N[C@H](CCCCN)C(=O)N[C@H](Cc1c[nH]c2ccccc12)C(=O)N[C@H](Cc1ccccc1)C(=O)N[C@H](CC(C)C)C(=O)N[C@H](CC(C)C)C(=O)N[C@H](Cc1ccccc1)C(=O)N[C@H](CCCNC(=N)N)C(=O)N[C@H](CCCCN)C(=O)N[C@H](CCCNC(=N)N)C(=O)O [Chain308D] (H-[dR][dL][dK][dW][dF][dL][dL][dF][dR][dK][dR]-OH) | system: clinical strains of Proteus mirabilis
Result: 128
